# targetOrSystem: PI3Kγ (Homo sapiens, UniProt P48736)
# Sequence (P48736 whole entry, species assumed): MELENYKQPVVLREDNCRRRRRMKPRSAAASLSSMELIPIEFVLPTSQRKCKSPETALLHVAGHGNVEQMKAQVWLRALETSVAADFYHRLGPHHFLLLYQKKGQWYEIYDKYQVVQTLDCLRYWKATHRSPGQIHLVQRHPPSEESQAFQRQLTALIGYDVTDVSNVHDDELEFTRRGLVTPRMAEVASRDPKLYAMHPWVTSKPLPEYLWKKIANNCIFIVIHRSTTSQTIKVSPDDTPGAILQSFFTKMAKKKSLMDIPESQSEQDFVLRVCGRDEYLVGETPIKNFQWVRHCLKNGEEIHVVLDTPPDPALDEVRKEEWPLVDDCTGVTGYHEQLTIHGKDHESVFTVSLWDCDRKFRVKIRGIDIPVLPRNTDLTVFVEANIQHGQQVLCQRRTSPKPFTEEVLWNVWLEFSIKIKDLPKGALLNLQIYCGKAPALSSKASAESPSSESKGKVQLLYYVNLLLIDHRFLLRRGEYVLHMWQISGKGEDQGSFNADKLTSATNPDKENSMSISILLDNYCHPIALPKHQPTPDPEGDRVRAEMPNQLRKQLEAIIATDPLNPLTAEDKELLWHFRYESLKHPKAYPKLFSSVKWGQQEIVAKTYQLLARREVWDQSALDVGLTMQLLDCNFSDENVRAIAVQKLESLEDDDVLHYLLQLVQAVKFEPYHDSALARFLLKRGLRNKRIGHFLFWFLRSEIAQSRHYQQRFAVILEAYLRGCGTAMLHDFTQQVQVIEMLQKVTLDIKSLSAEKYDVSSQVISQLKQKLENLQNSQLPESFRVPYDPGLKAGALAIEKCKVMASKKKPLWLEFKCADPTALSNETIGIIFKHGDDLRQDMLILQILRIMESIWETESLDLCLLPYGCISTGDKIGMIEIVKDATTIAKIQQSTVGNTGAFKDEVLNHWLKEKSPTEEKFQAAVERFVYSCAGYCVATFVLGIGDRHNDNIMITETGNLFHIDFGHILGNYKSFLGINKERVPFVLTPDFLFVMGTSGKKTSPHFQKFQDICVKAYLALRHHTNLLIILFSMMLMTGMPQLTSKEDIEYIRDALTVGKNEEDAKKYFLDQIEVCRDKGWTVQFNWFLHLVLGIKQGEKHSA
# assayMethodText: ADP-Glo luminescent assay, enzymatic activity of PI3K gamma
# Format: biochemical
# testSettings: ATP 25 μM; read-out: PI3K gamma (nM) inhibitory activity (IC50)
# Experimental: The compounds would be tested from 1 or 10 μM, 3-fold dilution for 10 doses, in duplicate. Compound preparation: Dilute a compound to 100× of the final desired highest inhibitor concentration in reaction by 100% DMSO. […] Kinase reaction: Prepare a solution of PI3K in 1× kinase buffer at 2-fold the final concentration of each reagent in the assay. […] Add 10 ul Kinase Detection Reagent to each well, shake 1 min, equilibrate for 30 min before reading on a luminescence plate reader. […]
measureName: IC50 (nM)

# annotated cases, reported IC50 shown
### Prompt Look up IC50 for this compound: `CC(=O)Nc1nc(C)c(-c2cc3c(c(NC(C)=O)n2)C(=O)N([C@@H](C)C2CC2)C3)s1`
### Response 0.87

### Prompt Fill blank: measured IC50 of the compound `CC(=O)Nc1nc(C)c(-c2cc3c(c(C(=O)N(C)C)n2)C(=O)N([C@@H](C)C2CC2)C3)s1` is ____.
### Response 2.5

### Prompt Look up IC50 for this compound: CC(=O)Nc1nc(C)c(-c2cc3c(c(OC4CCOC4)n2)C(=O)N([C@@H](C)C2CC2)C3)s1 (stereo partly drawn)
### Response 0.65

### Prompt Item `COCCOc1nc(-c2sc(NC(C)=O)nc2C)cc2c1C(=O)N([C@@H](C)C1CC1)C2` has what recorded IC50?
### Response 1.8

### Prompt Bench note: what IC50 did `CC(=O)Nc1nc(C)c(-c2cc3c(c(P(C)(C)=O)c2)C(=O)N([C@@H](C)C2CC2)C3)s1` show?
### Response 1.4

### Prompt Would you mind telling me what IC50 value was observed for `CCP(=O)(CC)c1cc(-c2sc(NC(C)=O)nc2C)cc2c1C(=O)N([C@@H](C)C1CC1)C2` ?
### Response 5.9

### Prompt For the compound `COc1nc(-c2sc(NC(C)=O)nc2C)cc2c1C(=O)N([C@@H](C)C1CC1)C2` , what IC50 is on record?
### Response 1.7

(1) CC(=O)Nc1nc(C)c(-c2cc3c(c(C(=O)N4CCOCC4)n2)C(=O)N([C@@H](C)C2CC2)C3)s1
(2) CC(=O)Nc1nc(C)c(-c2cc3c(c(NS(=O)(=O)C4CC4)n2)C(=O)N([C@@H](C)C2CC2)C3)s1
(3) CC(=O)Nc1nc(C)c(-c2cc3c(c(N4CC(O)C4)n2)C(=O)N([C@@H](C)C2CC2)C3)s1
(4) CC(=O)Nc1nc(C)c(-c2cc3c(c(C)n2)C(=O)N([C@@H](C)C2CC2)C3)s1
(5) CC(=O)Nc1nc(C(F)F)c(-c2cc3c(c([S@@+](C)[O-])c2)C(=O)N([C@@H](C)C2CC2)C3)s1 (racemic)
### Prompt Write the entries in order, lowest recorded IC50 first. // respond by listing labels in the order requested
### Response 3, 2, 1, 5, 4
(3: 0.84 nM, 2: 1.5 nM, 1: 6.5 nM, 5: 16 nM, 4: 29 nM)

###

# assayMethodText: Pharmacokinetics in mice (plasma and brain concentrations)
# Type: in vivo, CD-1 mice
# testSettings: CD-1, plasma; male CD1 mouse, oral gavage 20 mg/kg, 0.5 h; read-out: Plasma
measureName: concentration at 0.5 h (ng/mL)
Could you give me the number in ng/mL? Just the number is fine.

### Prompt Query: concentration at 0.5 h; subject: `CC(=O)Nc1nc(C)c(-c2cc3c(c(N4CCOCC4)n2)C(=O)N([C@@H](C)C2CC2)C3)s1`
### Response 2800

###

# targetOrSystem: PI3K gamma (Mus musculus)
# Construct: endogenous in cells; host or cells: RAW264.7
# Sequence (Q9JHG7 whole entry): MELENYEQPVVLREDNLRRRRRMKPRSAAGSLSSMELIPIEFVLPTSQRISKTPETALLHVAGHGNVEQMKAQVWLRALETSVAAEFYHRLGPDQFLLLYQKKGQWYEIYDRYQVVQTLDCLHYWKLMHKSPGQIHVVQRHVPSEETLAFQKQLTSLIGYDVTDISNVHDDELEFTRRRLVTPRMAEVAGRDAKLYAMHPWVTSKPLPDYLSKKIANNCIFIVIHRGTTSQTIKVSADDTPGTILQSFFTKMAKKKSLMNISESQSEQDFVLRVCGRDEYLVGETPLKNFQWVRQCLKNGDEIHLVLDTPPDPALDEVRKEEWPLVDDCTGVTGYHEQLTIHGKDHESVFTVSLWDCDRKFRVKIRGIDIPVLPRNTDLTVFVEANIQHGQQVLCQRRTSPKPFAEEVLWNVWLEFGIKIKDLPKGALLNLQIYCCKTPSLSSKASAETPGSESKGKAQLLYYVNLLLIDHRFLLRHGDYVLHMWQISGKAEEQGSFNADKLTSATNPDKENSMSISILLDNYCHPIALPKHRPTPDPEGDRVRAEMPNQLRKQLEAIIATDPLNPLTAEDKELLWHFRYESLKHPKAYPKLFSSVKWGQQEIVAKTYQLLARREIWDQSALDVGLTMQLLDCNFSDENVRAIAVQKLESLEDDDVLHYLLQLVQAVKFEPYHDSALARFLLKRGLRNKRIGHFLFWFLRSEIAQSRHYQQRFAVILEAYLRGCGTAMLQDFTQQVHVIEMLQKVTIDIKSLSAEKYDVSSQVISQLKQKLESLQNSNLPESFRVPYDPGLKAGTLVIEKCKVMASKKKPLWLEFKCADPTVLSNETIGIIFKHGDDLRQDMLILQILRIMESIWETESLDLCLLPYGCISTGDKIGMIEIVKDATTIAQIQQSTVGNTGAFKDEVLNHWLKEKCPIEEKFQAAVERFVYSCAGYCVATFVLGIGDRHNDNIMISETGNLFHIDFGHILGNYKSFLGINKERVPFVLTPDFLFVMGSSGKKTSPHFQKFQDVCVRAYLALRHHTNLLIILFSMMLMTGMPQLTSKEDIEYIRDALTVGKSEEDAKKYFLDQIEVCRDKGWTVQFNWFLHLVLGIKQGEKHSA
# Sequence (Q5SW28 whole entry partner): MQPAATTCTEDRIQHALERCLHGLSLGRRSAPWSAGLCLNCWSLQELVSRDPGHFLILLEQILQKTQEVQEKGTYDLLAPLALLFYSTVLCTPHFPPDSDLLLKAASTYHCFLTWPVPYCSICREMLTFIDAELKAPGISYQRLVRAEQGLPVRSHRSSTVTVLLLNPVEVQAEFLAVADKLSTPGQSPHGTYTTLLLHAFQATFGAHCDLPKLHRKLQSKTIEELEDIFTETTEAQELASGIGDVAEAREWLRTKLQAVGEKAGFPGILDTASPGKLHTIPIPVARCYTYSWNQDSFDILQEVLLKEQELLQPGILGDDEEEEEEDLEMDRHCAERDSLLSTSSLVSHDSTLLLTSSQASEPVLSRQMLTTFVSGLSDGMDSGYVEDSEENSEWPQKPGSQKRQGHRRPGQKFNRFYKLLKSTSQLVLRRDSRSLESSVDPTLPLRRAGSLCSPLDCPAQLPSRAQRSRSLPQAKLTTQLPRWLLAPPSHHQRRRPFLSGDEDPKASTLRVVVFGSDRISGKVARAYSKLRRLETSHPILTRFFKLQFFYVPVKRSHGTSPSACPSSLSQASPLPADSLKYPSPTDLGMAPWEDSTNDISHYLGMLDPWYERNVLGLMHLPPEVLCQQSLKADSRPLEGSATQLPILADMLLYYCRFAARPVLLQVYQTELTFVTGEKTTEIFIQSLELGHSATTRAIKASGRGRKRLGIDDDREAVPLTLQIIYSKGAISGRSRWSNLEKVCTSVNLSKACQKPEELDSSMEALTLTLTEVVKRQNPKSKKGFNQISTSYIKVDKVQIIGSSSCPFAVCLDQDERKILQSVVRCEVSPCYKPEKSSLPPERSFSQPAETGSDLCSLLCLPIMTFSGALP
# assayMethodText: Raw264.7 cell assay: phosphorylation of AKT in C5a stimulated RAW264.7 cells (AlphaLISA)
# Assay type: cell-based
# testSettings: pAKT, read-out: PI3K gamma Raw264.7 cell (nM) cellular activity (IC50)
measureName: IC50 (nM)

### Prompt Please look up its IC50: CC(=O)Nc1nc(C)c(-c2ccc3c(c2)CN([C@@H](C)C2CC2)C3=O)s1 [Compound 10]
### Response 290

(A) CNC(=O)c1nc(-c2sc(NC(C)=O)nc2C)cc2c1C(=O)N([C@@H](C)C1CC1)C2 [Compound 32]
(B) CC(=O)Nc1nc(C)c(-c2cc3c(c(OCCO)n2)C(=O)N([C@@H](C)C2CC2)C3)s1 [Compound 50]
(C) CC(=O)Nc1nc(C)c(-c2cc3c(c(N4CCC(O)CC4)n2)C(=O)N([C@@H](C)C2CC2)C3)s1 [Compound 46]
### Prompt Order these by IC50, descending, and give the full ranking. // format: requested-order list of labels
### Response A, B, C

###

# assayMethodText: Kinetic solubility test in PBS pH7.4
# Assay type: physicochemical
# testSettings: aqueous buffer, kinetic from dmso stock; PBS pH 7.4, 25° C., 2 hours
measureName: solubility at 2 h (µM)

### Prompt Look at this compound and give its reported solubility at 2 h. CC(=O)Nc1nc(C)c(-c2cc3c(c(N4CCOCC4)n2)C(=O)N(C(C)C(F)(F)F)C3)s1 (stereo in doubt)
### Response 32

### Prompt # query: solubility at 2 h of entry `CC(=O)Nc1nc(C)c(-c2cc3c(c(N4CCOCC4)n2)C(=O)N([C@@H](C)C2CC2)C3)s1`
### Response 9.6

### Prompt Endpoint output: solubility at 2 h of `CC(=O)Nc1nc(C)c(-c2cc3c(c(N4CCS(=O)(=O)CC4)n2)C(=O)N([C@@H](C)C2CC2)C3)s1` . Value?
### Response 2.3

(I) CC(=O)Nc1nc(C)c(-c2cc3c(c([S@](C)(=N)=O)c2)C(=O)N([C@@H](C)C2CC2)C3)s1 (racemic)
(II) CC(=O)Nc1nc(C)c(-c2cc3c(c(NS(=O)(=O)C4CC4)n2)C(=O)N([C@@H](C)C2CC2)C3)s1
### Prompt Name the one with the greater solubility at 2 h value, either I or II as given. The response must carry the label of the picked entry.
### Response I
(I: 245 µM, II: 83 µM)

(P) CC(=O)Nc1nc(C)c(-c2cc3c(c(NS(C)(=O)=O)n2)C(=O)N([C@@H](C)C2CC2)C3)s1
(Q) C[C@H](NC(=O)c1c(N)nn2cccnc12)c1cc2cccc(C#Cc3cnn(C)c3)c2c(=O)n1-c1ccccc1 [IPI-549, reference compound]
### Prompt Consider P and Q . Which of these has its solubility at 2 h at a higher number? Identify your selection by its label.
### Response P
(P: 240 µM, Q: 6.4 µM)

(a) CC(=O)Nc1nc(C)c(-c2cc3c(c(N4CCC(O)CC4)n2)C(=O)N([C@@H](C)C2CC2)C3)s1
(b) CC(=O)Nc1nc(C)c(-c2cc3c(c([S@@+](C)[O-])c2)C(=O)N([C@@H](C)C2CC2)C3)s1 (racemic)
### Prompt Which record shows the lower solubility at 2 h: the first, a , or the second, b ? Which one? Tell me its label.
### Response a
(a: 6.1 µM, b: 211 µM)

###

# targetOrSystem: PI3Kγ (Homo sapiens)
# assayMethodText: ADP-Glo luminescent assay, enzymatic activity of PI3K gamma
# Format: biochemical
# testSettings: ATP 25 μM; read-out: PI3K gamma (nM) inhibitory activity (IC50)
measureName: IC50 (nM)

### Prompt Which IC50 value is on record for CNC(=O)c1nc(-c2sc(NC(C)=O)nc2C)cc2c1C(=O)N([C@@H](C)C1CC1)C2 [Compound 32] ?
### Response 2.2

### Prompt Item under review: CC(=O)Nc1nc(C)c(-c2cc3c(c([S+]([O-])C(C)C)c2)C(=O)N([C@@H](C)C2CC2)C3)s1 (mixture of isomers) [Compound 14] . Reported IC50?
### Response 4.2

### Prompt What value of IC50 has been recorded for this entry: CC(=O)Nc1nc(C)c(-c2cc3c(c([S@](C)(=N)=O)c2)C(=O)N([C@@H](C)C2CC2)C3)s1 (racemic) [Compound 15]
### Response 1.9

### Prompt Entry CC(=O)Nc1nc(C)c(-c2cc3c(c([S@@+](C)[O-])c2)C(=O)N([C@@H](C)C2CC2)C3)s1 (racemic) [Compound 12] has what IC50?
### Response 1.7

(a) CC(=O)Nc1nc(C)c(-c2cc3c(c(OC4COC4)n2)C(=O)N([C@@H](C)C2CC2)C3)s1 [Compound 52]
(b) CC(=O)Nc1nc(C)c(-c2cc3c(c(N4CCOCC4)n2)C(=O)N(C(C)C(F)(F)F)C3)s1 (stereo in doubt) [Compound 36]
(c) CC(=O)Nc1nc(C)c(-c2cc3c(c(N4CCC(O)C4)n2)C(=O)N([C@@H](C)C2CC2)C3)s1 (stereo partly shown) [Compound 47]
### Prompt I would appreciate it if you could sort these 3 compounds by IC50, starting from the smallest number. Provide your answer as the labels ordered per the instruction.
### Response c, a, b
(c: 0.61 nM, a: 1.1 nM, b: 2.4 nM)
